tgt: SHP2-C SH2
procedureSummary: SH2 binding enrichment of the phosphorylated peptide, bacterial display (enrichment ratio); higher = better substrate or ligand; peptides without Tyr show the background;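 note: peptide library displayed on the E. coli surface as eCPX fusions, selected cells deep-sequenced, score is each peptide's frequency after selection divided by its frequency in the input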
Would you mind telling me the reported SH2 binding enrichment of each entry?
No unit in the answer, please; the number alone is enough.

Ask: State its SH2 binding enrichment: KAIDMYLMGCF [GABRB2_Y308]
Reply: 0.648

Ask: State its SH2 binding enrichment: GESKDYALHAG [SVIL_Y185_V189A]
Reply: 0.739

Ask: State its SH2 binding enrichment: LTELGYSFVTT [ACTA1_Y200_R198L]
Reply: 3.2

Ask: State its SH2 binding enrichment: IGRHAYGDQYR [IDH1_Y135]
Reply: 0.681

Ask: State its SH2 binding enrichment: SMAKFYASEIA [ACADSB_Y373_YF]
Reply: 0.674

Ask: State its SH2 binding enrichment: KQLGEYKFQNA [ALB_Y425_E420K]
Reply: 1.04

Ask: State its SH2 binding enrichment: MLEVPYVDRNS [F10_Y384]
Reply: 0.708

Ask: State its SH2 binding enrichment: RLLRGYDQSAF [HLA-C_Y137_YF]
Reply: 0.953

Ask: State its SH2 binding enrichment: SLQFEYVHYGG [CDC14A_Y591_S589F]
Reply: 0.523

Ask: State its SH2 binding enrichment: GGTPLYRDRQG [AGXT_Y194_M195R]
Reply: 0.78

Ask: State its SH2 binding enrichment: PYSEPYADYGG [APBA1_Y187]
Reply: 0.651

Ask: State its SH2 binding enrichment: IGGHAYGDQYR [IDH1_Y135_R132G]
Reply: 0.548

Ask: State its SH2 binding enrichment: KASRKYFAMKI [AKT3_Y173_G171R_YF]
Reply: 0.666

Ask: State its SH2 binding enrichment: TGFRPYVCPFD [YY1_Y383_D380Y_YF]
Reply: 0.82

Reference source for all entries: the supplement of paper PMC10065799
